Entries and their EC50
- systemUnderTest: T1, Recombinant human TIGIT (human, UniProt Q495A1 22-141, limits assumed)
- T1 construct: also called T cell immunoreceptor with Ig and ITIM domains
- T1 sequence: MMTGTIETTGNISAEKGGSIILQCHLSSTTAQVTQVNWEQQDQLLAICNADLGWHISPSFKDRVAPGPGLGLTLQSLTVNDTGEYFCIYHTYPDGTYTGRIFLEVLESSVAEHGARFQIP
- procedureSummary: ELISA, recombinant human TIGIT coated on plate, serially diluted antibody

Before answering, review these 2 worked examples.
Asked: Query (binder): SCT-Ga498 (antibody, V domains shown) VH: QVQLQQSGAEVKKPGASVKVSCKASGYAFTNYLIEWVKQAPGQGLEWIGVINPGSGGNNYNEKFKGRATITADKSTSTAYMELSSLRSEDTAVYFCARRGDKYGSAWFAYWGQGTTVTVSA VL: DIVMTQSQRFMSTTVGDRVSITCKASQDVSTAVAWYQQKPGQSPKLLIYSASYRYTGVPDRFTGSGSGTDFTLTISNMQSEDLAVYYCQQHYSSPRTFGGGTKLEIK ; field requested: EC50
Given back: 0.82 nM

Asked: Repeat for the following binder: SCT-Ga001 (antibody, V domains shown, Murine variable domains) VH: QVQLQQSGAELVRPGTSVKVSCKASGYAFTNYLIEWVKQRPGQGLEWIGVINPGSGGSKYNEKFKGKTTLTADKSSSTAYMQLSSLTSEDSAVYFCARTGVYGNFLIFDYWGQGTTLTVSS VL: DIVLTQSPSSLSVAAGEKVTLSCKSSQSLLNSGIQKNYLAWYQQKPGQPPKLLIYGASTRESGVPDRFTGSGSGTDFTLTISSVQAEDLAVYYCQNDHRYPFTFGGGTKLEIK
Given back: 5.03 nM

Alright, here's another binder for you.
Asked: Looking for the measured EC50 of SCT-Ga495 (antibody, V domains shown) VH: EVKLVESGGGLVQPGGSLRLSCAASGFAFSSFDMSWVRQAPGKGLEWVAVISSGGSYTFYPDSVKGRFTISRDNSKNTLYLQMNSLRAEDTALYFCTRQDYRYPYIMDYWGQGTLVTVSS VL: AIQMTQSPSSLSASVGDRVTITCQASQNINVWLSWYQQKPGKAPKLLIYKASTLASGVPSRFSGSGSGTDFTLTISSLQPDDFATYYCQQGQSYPWTFGGGTKVEIK , can you help?
Given back: 0.69 nM
